Biological target: rat mGlu3 (Rattus norvegicus (Rat))
Test: mGlu3 Ca2+ flux assay
Assay type: cell-based
Conditions: read-out: rat mGlu3 IC50
Method: The cells were grown overnight at 37° C. in the presence of 5% CO2. […] Dye was removed, 20 μL of assay buffer was added, and the plate was incubated for 10 minutes at room temperature. Ca^2+ flux was measured using the Functional Drug Screening System (FDSS7000, Hamamatsu, Japan). […] Calcium fluorescence measures were recorded as fold over basal fluorescence; raw data was then normalized to the maximal response to glutamate. […]
Could you mark each record 1.0 if its IC50 falls strictly under 1000 nM, and 0.0 if it equals or exceeds it?

* N#CCc1ccc(NCc2cc3n(n2)CCN(c2ccc(F)cc2)C3=O)cc1 [Compound 26] | 1.0
* O=C1c2cc(CNc3ccc(OC(F)F)cc3F)nn2CCN1c1ccc(Cl)cc1F [Compound 149] | 0.0
* C[C@@H]1CN(c2ccc(F)cc2)C(=O)c2cc(CNc3cccc(F)c3)nn21 [Compound 46] | 0.0
* O=C1c2cc(CNc3ccc(OC(F)F)cc3F)nn2CCN1c1ccc(F)cc1 [Compound 37] | 1.0
* O=C1c2cc(CNc3ccc(OC(F)F)cc3F)nn2CCN1c1cccc(F)n1 [Compound 138] | 1.0
* C[C@@H]1CN(c2ccc(F)cc2)C(=O)c2cc(CNc3cccc(Cl)c3)nn21 [Compound 48] | 0.0
* O=C1c2cc(CNc3ccc(C(F)(F)F)cc3)nn2CCN1c1ccc(F)cc1 [Compound 19] | 0.0
* CCCN(Cc1cc2n(n1)CCN(c1ccc(F)c(F)c1)C2=O)c1ccc(OC)cc1 [Compound 167] | 0.0
* CC(C)(C)c1ccc(NCc2cc3n(n2)CCN(c2ccc(F)cc2)C3=O)cc1 [Compound 24] | 0.0
* C[C@H]1CN(c2ccc(F)cc2)C(=O)c2cc(CNc3cccc(F)c3)nn21 [Compound 47] | 0.0
* CS(=O)(=O)c1ccc(NCc2cc3n(n2)CCN(c2ccc(F)cc2)C3=O)cc1 [Compound 25] | 0.0
* COc1ccc(N(C)Cc2cc3n(n2)CCN(c2cc(F)cc(Cl)c2)C3=O)cc1 [Compound 131] | 0.0
* O=C1c2cc(CNc3ccc(OC(F)(F)F)cc3)nn2CCN1c1ccc(F)cc1 [Compound 21] | 0.0
* CC(C)c1ccc(NCc2cc3n(n2)CCN(c2ccc(F)cc2)C3=O)cc1 [Compound 23] | 0.0
* O=C1c2cc(CNc3ccc(Br)cc3)nn2CCN1c1ccc(F)cc1 [Compound 16] | 0.0
* CCN(Cc1cc2n(n1)CCN(c1ccc(F)c(F)c1)C2=O)c1ccc(OC)cc1 [Compound 168] | 0.0
* Cc1cnc(N2CCn3nc(CNc4ccc(OC(F)F)cc4F)cc3C2=O)s1 [Compound 137] | 0.0
* C[C@H]1CN(c2ccc(F)cc2)C(=O)c2cc(CNc3cccc(Cl)c3)nn21 [Compound 49] | 0.0
* COCc1ccc(N2CCn3nc(CN(C)c4ccc(OC)cc4)cc3C2=O)cc1 [Compound 120] | 0.0

----------
Target: rat mGlu3 (Rattus norvegicus (Rat), UniProt P31422)
Sequence (P31422 23-879): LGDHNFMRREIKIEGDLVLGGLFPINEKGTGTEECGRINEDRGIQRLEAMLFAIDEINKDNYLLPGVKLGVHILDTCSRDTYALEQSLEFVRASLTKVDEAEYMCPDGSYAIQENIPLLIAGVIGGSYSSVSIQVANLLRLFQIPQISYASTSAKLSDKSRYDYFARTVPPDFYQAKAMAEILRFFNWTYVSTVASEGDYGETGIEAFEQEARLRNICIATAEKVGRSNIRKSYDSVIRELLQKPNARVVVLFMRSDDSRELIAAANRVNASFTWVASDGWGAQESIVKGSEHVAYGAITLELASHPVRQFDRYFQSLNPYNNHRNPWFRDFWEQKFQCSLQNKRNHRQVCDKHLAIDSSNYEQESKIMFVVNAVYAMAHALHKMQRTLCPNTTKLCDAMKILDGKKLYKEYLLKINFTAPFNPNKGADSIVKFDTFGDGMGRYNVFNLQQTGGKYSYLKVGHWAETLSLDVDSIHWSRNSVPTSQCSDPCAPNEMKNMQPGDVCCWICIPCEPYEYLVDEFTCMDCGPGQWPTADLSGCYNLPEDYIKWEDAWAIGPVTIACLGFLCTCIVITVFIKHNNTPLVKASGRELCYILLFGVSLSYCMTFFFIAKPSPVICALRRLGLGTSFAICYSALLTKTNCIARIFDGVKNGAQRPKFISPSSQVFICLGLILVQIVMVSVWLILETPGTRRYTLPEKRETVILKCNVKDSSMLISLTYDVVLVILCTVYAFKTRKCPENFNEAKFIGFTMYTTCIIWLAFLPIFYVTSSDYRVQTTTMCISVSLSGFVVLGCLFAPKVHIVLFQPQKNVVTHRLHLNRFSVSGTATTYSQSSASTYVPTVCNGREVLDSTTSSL
Assay: mGlu3 Ca2+ flux assay
Type: cell-based
Conditions: Table 2 compounds with X = NMe; response at 30 μM compound as percentage of maximal glutamate response
measured.attribute: mGlu3 Glu max (%)

* CN(Cc1cc2n(n1)CCN(c1ccc(F)cc1)C2=O)c1ccccc1 [drawing 29 X = NMe] | 1
* CN(Cc1cc2n(n1)CCN(c1ccc(F)cc1)C2=O)c1ccccc1F [drawing 30 X = NMe] | −1
* CN(Cc1cc2n(n1)CCN(c1ccc(F)cc1)C2=O)c1cccc(F)c1 [drawing 31 X = NMe] | 2
* CN(Cc1cc2n(n1)CCN(c1ccc(F)cc1)C2=O)c1ccc(F)cc1 [drawing 32 X = NMe] | 1

The measurements presented in this section are drawn from patent US9676782B2.
